Listing of recorded inhibition at 0.1 µM by entry.
- Tested on: L1210 cells
- assayText: Nucleoside transport inhibition assay: inhibition of 3H-thymidine uptake, with or without AGP or HSA
- Type: cell-based, murine
- measurementSetup: Mus musculus, L1210, 0.1 μM compound, no AGP

>  <smilesNotation>
COc1ccc(CNc2nc(NCCO)nc3c(NCc4ccc(OC)cc4)nc(NCCO)nc23)cc1

>  <inhibition at 0.1 µM [%]>
5

$$$$
>  <smilesNotation>
CN(Cc1ccccc1)c1nc(OCCO)nc2c(N(C)Cc3ccccc3)nc(OCCO)nc12

>  <inhibition at 0.1 µM [%]>
12

$$$$
>  <smilesNotation>
COc1ccc(CN(C)c2nc(N(CCO)CCO)nc3c(N(C)Cc4ccc(OC)cc4)nc(N(CCO)CCO)nc23)cc1

>  <inhibition at 0.1 µM [%]>
23

$$$$
>  <smilesNotation>
OCCNc1nc(NCc2ccccc2)c2nc(NCCO)nc(NCc3ccccc3)c2n1

>  <inhibition at 0.1 µM [%]>
2

$$$$

###

- System: L1210 cells
- assayText: Nucleoside transport inhibition assay: inhibition of 3H-thymidine uptake, with or without AGP or HSA
- Assay type: cell-based, murine
- measurementSetup: Mus musculus, L1210, 10 μM compound, no AGP, 5% DMSO; read-out: % Inhibition of 3H-thymidine uptake, No AGP (5% DMSO)
Measured inhibition at 10 µM by item
parameter: inhibition at 10 µM (%)

>  <smilesNotation>
CC(C)Oc1nc(N2CCCCC2)c2nc(OC(C)C)nc(N3CCCCC3)c2n1

>  <observedMeasurement>
23

$$$$
>  <smilesNotation>
CC(=O)COc1nc(N2CCCCC2)c2nc(OCC(C)=O)nc(N3CCCCC3)c2n1

>  <observedMeasurement>
58

$$$$
>  <smilesNotation>
CCOc1nc(N2CCCCC2)c2nc(OCC)nc(N3CCCCC3)c2n1

>  <observedMeasurement>
35

$$$$
>  <smilesNotation>
CC(C)CCOc1nc(N2CCCCC2)c2nc(OCCC(C)C)nc(N3CCCCC3)c2n1

>  <observedMeasurement>
46

$$$$
>  <smilesNotation>
C=CCOc1nc(N2CCCCC2)c2nc(OCC=C)nc(N3CCCCC3)c2n1

>  <observedMeasurement>
52

$$$$
>  <smilesNotation>
COc1nc(N2CCCCC2)c2nc(OC)nc(N3CCCCC3)c2n1

>  <observedMeasurement>
39

$$$$
>  <smilesNotation>
CC(C)COc1nc(N2CCCCC2)c2nc(OCC(C)C)nc(N3CCCCC3)c2n1

>  <observedMeasurement>
25

$$$$
